# STUDY SYSTEM: Cytochrome P450 2C9 (Homo sapiens, UniProt P11712)
# Sequence (P11712 whole entry): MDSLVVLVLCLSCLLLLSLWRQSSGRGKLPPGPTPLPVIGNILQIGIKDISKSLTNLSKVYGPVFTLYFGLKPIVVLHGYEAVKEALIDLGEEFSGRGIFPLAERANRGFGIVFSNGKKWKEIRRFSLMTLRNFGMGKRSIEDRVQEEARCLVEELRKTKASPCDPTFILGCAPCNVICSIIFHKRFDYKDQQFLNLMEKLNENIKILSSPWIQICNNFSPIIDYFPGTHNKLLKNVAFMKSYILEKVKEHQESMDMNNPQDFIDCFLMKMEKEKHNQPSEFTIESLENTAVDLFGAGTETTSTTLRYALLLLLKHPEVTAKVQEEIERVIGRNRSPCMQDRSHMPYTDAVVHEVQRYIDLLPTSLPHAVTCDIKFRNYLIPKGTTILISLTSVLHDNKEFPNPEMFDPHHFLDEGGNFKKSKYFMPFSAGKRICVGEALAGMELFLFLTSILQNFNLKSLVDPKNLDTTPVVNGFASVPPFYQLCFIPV
# METHOD NOTES: Inhibition of human CYP2C9
# Format: ADME
OUTCOME MEASURE: IC50

>>> recorded_measurement("CC(C)c1cc(CNC(=O)c2ccc(Cl)c(OC3CCN(C)CC3)c2)on1")
"> 30 µM"

----------
# STUDY SYSTEM: UniProtKB P08684
# Sequence (P08684 whole entry): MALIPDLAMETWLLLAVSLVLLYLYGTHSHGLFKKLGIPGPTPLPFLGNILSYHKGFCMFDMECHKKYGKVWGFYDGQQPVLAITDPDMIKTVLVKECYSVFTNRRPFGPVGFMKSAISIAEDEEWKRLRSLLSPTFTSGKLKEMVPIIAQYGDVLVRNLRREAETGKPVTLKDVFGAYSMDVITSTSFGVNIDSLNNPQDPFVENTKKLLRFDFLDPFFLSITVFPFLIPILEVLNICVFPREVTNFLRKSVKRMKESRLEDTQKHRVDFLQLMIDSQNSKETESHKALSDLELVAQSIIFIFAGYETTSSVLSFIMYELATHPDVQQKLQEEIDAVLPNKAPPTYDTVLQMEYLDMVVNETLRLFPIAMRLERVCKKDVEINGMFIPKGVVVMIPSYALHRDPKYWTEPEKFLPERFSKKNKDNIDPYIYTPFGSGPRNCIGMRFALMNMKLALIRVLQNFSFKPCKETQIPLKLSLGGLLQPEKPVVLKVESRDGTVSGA
OUTCOME MEASURE: IC50

>>> recorded_measurement("CC(C)c1cc(CNC(=O)c2ccc(Cl)c(OC3CCN(C)CC3)c2)on1")
"> 30 µM"

----------
# METHOD NOTES: Volume of distribution at steady state in cannulated Sprague-Dawley rat at 1 mg/kg, iv up to 24 hrs by LC-MS/MS analysis
# Assay type: ADME, organism-based
# DETAILS: Sprague-Dawley, in vivo, read-out: Vdss
OUTCOME MEASURE: Vd

>>> recorded_measurement("CC(C)c1cc(CNC(=O)c2ccc(Cl)c(OC3CCN(C)CC3)c2)on1")
"0.3 L/kg"

The origin of these recorded values is ChEMBL document CHEMBL3860045.
